molecular target: T1, QP094 (human SIRPα V1 ECD(E31-R370)-flag-his) (human, UniProt P78324 31-370); assay: binding ELISA, antigen coated
T1 construct: the construct carries flag and his tags; also called SIRPαV1-flag-his; SIRPαV1-his (QP094)
T1 sequence (P78324 other isoform, or with tags, fused parts or gaps limits assumed): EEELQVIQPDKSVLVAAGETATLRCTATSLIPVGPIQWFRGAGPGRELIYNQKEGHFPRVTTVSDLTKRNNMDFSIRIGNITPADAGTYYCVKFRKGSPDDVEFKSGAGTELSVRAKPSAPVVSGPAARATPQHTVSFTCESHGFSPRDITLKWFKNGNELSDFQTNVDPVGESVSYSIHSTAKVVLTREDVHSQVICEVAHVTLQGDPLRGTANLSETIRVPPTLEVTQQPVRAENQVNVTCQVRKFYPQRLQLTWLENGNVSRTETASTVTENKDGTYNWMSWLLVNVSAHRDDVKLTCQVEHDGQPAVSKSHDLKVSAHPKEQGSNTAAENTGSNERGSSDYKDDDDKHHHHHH
With a cut-off of 1 ng/mL, any EC50 strictly below it is called 1 (yes); any EC50 meeting it or above is called 0 (no).

Binder	Group
QP2561586 (antibody, human IgG4, V domains shown, Human IgG4 heavy constant region and kappa CL) VH: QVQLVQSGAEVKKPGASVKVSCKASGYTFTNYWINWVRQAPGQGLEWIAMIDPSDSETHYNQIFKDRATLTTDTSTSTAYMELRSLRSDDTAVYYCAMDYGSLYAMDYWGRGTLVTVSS VL: DIVLTQSPDSLAVSLGERATINCRASKSVSSSGYNYIFWYQQKPGQPPKLLIYLASNLDSGVPDRFSGSGSGTDFTLTISSLQAEDVAVYYCQESRELPTFGQGTKLEIK	0 (no)
QP2561581 (antibody, human IgG4, V domains shown, Human IgG4 heavy constant region and kappa CL) VH: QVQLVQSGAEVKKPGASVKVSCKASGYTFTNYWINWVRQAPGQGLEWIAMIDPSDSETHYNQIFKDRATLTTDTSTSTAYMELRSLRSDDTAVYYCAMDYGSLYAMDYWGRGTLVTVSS VL: DIVLTQSPDSLAVSLGERATINCRASKSVSSSGYNYIFWYQQKPGQPPKLLIYLASNLDPGVPDRFSGSGSGTDFTLTISSLQAEDVAVYYCQHSRELPTFGQGTKLEIK	0 (no)
QP256253 (antibody, human IgG4, V domains shown, also called humanized antibody QP256253; QP163164 humanized clone) VH: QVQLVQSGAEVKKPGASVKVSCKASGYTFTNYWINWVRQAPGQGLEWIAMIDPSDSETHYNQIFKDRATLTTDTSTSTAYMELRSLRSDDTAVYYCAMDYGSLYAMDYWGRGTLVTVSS VL: DIVLTQSPDSLAVSLGERATINCRASKSVSSSGYNYIFWYQQKPGQPPKLLIYLASNLDSGVPDRFSGSGSGTDFTLTISSLQAEDVAVYYCQHSRELPTFGQGTKLEIK	0 (no)
QP2561771 (antibody, human IgG4, V domains shown, Human IgG4 heavy constant region and kappa CL) VH: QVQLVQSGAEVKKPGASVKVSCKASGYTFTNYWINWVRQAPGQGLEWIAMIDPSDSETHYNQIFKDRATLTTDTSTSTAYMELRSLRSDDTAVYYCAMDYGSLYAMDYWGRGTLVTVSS VL: DIVLTQSPDSLAVSLGERATINCRASKSVSSSGYNWIFWYQQKPGQPPKLLIYLASNRDSGVPDRFSGSGSGTDFTLTISSLQAEDVAVYYCQESRELPTFGQGTKLEIK	0 (no)
QP256279 (antibody, human IgG4, V domains shown, Human IgG4 heavy constant region and kappa CL) VH: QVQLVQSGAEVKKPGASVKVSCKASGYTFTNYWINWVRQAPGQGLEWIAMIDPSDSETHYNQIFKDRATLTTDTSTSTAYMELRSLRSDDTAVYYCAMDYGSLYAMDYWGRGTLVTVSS VL: DIVLTQSPDSLAVSLGERATINCRASQSVRSSGYNWIFWYQQKPGQPPKLLIYLASNRDSGVPDRFSGSGSGTDFTLTISSLQAEDVAVYYCQHSRELPTFGQGTKLEIK	1 (yes)
QP2561589 (antibody, human IgG4, V domains shown, Human IgG4 heavy constant region and kappa CL) VH: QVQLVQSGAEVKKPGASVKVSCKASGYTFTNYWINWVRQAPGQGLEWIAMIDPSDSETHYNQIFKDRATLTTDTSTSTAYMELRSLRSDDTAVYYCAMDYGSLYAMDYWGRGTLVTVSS VL: DIVLTQSPDSLAVSLGERATINCRASKSVSSSGYNYIFWYQQKPGQPPKLLIYLASNLDSGVPDRFSGSGSGTDFTLTISSLQAEDVAVYYCQESWELPTFGQGTKLEIK	0 (no)
